TESTED_TARGET: Aldehyde dehydrogenase 1A1 (Homo sapiens)
ASSAY_PROTOCOL: qHTS Assay for Inhibitors of Aldehyde Dehydrogenase 1 (ALDH1A1);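 on activity, negative = inhibition: plate controls were no enzyme wells and a reference inhibitor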
SETUP_CONDITIONS: Purified ALDH1A1, NADH fluorescence, propionaldehyde substrate; series mostly up to 75.3 µM
Among all 220,000 compounds or so, about 16,000 (7.3%) were called active. Not shown: some 25% with an inconclusive outcome. The sample holds actives, similar compounds and a random draw of the others, so the mix is not that of the screen.
Attribute: activity, negative = inhibition

COMPOUND	TESTED_TARGET	activity, negative = inhibition
CC1(OC(=O)CCc2ccccc2)C(=O)C=C2C=C(c3ccc(C#N)cc3)N(CCc3ccccn3)C=C2C1=O (stereo not given)	Aldehyde dehydrogenase 1A1 (Homo sapiens)	10.1% [at 13.5 µM] (inactive)
C[C@H]1Cc2c(-c3ccccc3)nc3c(c2CO1)CN(C(=O)C1CC1)CC3	Aldehyde dehydrogenase 1A1 (Homo sapiens)	8.3% [at 13.5 µM] (inactive)
COC(=O)CCCC1=CC2=CC(=O)C(C)(OC(=O)c3cccs3)C(=O)C2=CN1CC1CC1 (stereo not given)	Aldehyde dehydrogenase 1A1 (Homo sapiens)	-4.48% [at 13.5 µM] (inactive)
C[C@@]12CCC(=O)C=C1CC[C@H]1C2[C@@H](O)C[C@]2(C)[C@@H]1CC[C@@]2(O)C(=O)COC(=O)C1CCCC1 (stereo not given in full)	Aldehyde dehydrogenase 1A1 (Homo sapiens)	-0.294% [at 13.5 µM] (inactive)
COC(=O)C1=C(C(=O)OC)[C@@H]2N(C)c3ccccc3[C@@]23C[C@@H](C(=O)OC)N(S(=O)(=O)c2cccs2)C3=N1	Aldehyde dehydrogenase 1A1 (Homo sapiens)	0.268% [at 13.5 µM] (inactive)
COC(=O)C1=C(C(=O)OC)[C@@H]2N(C)c3ccccc3[C@@]23C[C@@H](C(=O)OC)N(C(C)=O)C3=N1	Aldehyde dehydrogenase 1A1 (Homo sapiens)	3.72% [at 13.5 µM] (inactive)
c1ccc2sc(SCCSc3nc4ccccc4s3)nc2c1	Aldehyde dehydrogenase 1A1 (Homo sapiens)	3.19% [at 13.5 µM] (inactive)
O=C(O)COc1c(Cl)cc(Cl)c2cccnc12	Aldehyde dehydrogenase 1A1 (Homo sapiens)	-8.71% [at 13.5 µM] (inactive)
C=CCN1c2ccccc2[C@]23C[C@@H](C(=O)OC)N(S(=O)(=O)c4ccc([N+](=O)[O-])cc4)C2=NC(C(=O)OC)=C(C(=O)OC)[C@H]13	Aldehyde dehydrogenase 1A1 (Homo sapiens)	-3.11% [at 13.5 µM] (inactive)
C=CC1=C2C=C(C3CC3)N(CC(C)C)C=C2C(=O)C(C)(OC(=O)c2ccco2)C1=O (stereo not given)	Aldehyde dehydrogenase 1A1 (Homo sapiens)	-1.97% [at 13.5 µM] (inactive)
CC(=O)[C@H](C(c1ccccc1)N1CCOCC1)N1CCOCC1 (stereo not given in full)	Aldehyde dehydrogenase 1A1 (Homo sapiens)	-3.8% [at 13.5 µM] (inactive)
Oc1ccccc1CNCc1ccccc1O	Aldehyde dehydrogenase 1A1 (Homo sapiens)	-6.72% [at 13.5 µM] (inactive)
CCCCC1=CC2=CC(=O)C(C)(OC(=O)CC)C(=O)C2=CN1CCCOC(C)C (stereo not given)	Aldehyde dehydrogenase 1A1 (Homo sapiens)	-5.05% [at 13.5 µM] (inactive)
COC(=O)CC1c2ccccc2C(Cc2ccc(OC)cc2)=C(C)N1C(=O)OC (stereo not given)	Aldehyde dehydrogenase 1A1 (Homo sapiens)	-1.14% [at 13.5 µM] (inactive)
C#CCCOC(=O)N1C2=NC(C(=O)OC)=C(C(=O)OC)[C@@H]3N(C)c4ccc(OC)cc4[C@]23C[C@H]1C(=O)OC	Aldehyde dehydrogenase 1A1 (Homo sapiens)	4.88% [at 13.5 µM] (inactive)

----------
TESTED_TARGET: Aldehyde dehydrogenase 1A1 (Homo sapiens)
ASSAY_PROTOCOL: qHTS Assay for Inhibitors of Aldehyde Dehydrogenase 1 (ALDH1A1)
SETUP_CONDITIONS: Purified ALDH1A1, NADH fluorescence, propionaldehyde substrate; series mostly up to 75.3 µM
The campaign covered roughly 220,000 compounds. About 16,000 (7.3%) were called active. Another 25% or so got no clear call; they are omitted. The call rests on the fitted dose curve; in most records, active means well fitted inhibition curve with a large enough effect (not every such curve was filed as active); inconclusive means small, poorly fitted or top-dose-only effect, or another doubt; inactive means no such curve, though single readings can be large or run the other way. What follows is part of a selection rich in actives, with near analogues and random picks from the rest.
Classes used: active, inactive

MOLECULE	GROUP_LABEL
COc1cccc2cc(/C(C)=N/NC(=O)c3ccco3)oc12	inactive
CCC1S/C(=N/N=C/c2ccco2)NC1=O (stereo not drawn)	inactive
Cc1ccc(S(=O)(=O)N/N=C\c2cc3c(cc2[N+](=O)[O-])OCO3)cc1	active
COc1cccc(-n2c(SCC(=O)c3c[nH]c4ccccc34)nc3ccccc3c2=O)c1	inactive
Cc1cnc(C(=O)OCC(=O)NCCCc2ccccc2)cn1	inactive
CN(C)N(C)C(=O)C(O)(c1ccccc1)c1ccccc1	inactive
CC(C)(C)C1C/C(=C/c2ccco2)C(=O)/C(=C/c2ccco2)C1 (stereo not drawn)	active
N#CCSc1nc2ccccc2c(=O)n1-c1ccccc1	active
O=C(CC(=O)N/N=C\c1ccc(F)cc1)NCCc1ccccc1	inactive
CCNC(=O)NNC(=O)C1CC(c2cccs2)=NO1 (stereo not drawn)	inactive
CC(C)C(c1nnnn1Cc1ccccc1)N1CCC(C(N)=O)CC1 (stereo not drawn)	inactive
COc1ccc(OCC(=O)OCC(=O)Nc2ccc(S(=O)(=O)N3CCCCC3)cc2)cc1	active
O=C(COc1ccc(S(=O)(=O)NCCc2ccccc2)cc1)N1CCCC1	inactive
O=C(C(=O)N1CCc2ccccc2C1)N1CCc2ccccc2C1	inactive
S=C(NNC(=S)NC1CC2C=CC1C2)NC1CC2C=CC1C2 (stereo not drawn)	active
Cc1ccc(S(=O)(=O)Cn2nnnc2CN2CCN(Cc3ccc4c(c3)OCO4)CC2)cc1	inactive
COC(=O)COc1ccc(S(=O)(=O)N2CCOCC2)cc1	inactive
O=c1c2ccccc2nc(CSc2nnnn2-c2ccccc2)n1-c1ccccc1	inactive
CC1CCN(C(=S)NC2CC3CCC2C3)CC1 (stereo not drawn)	inactive
O=C(COc1ccc(/C=N/NS(=O)(=O)c2ccccc2)cc1)NCCc1ccccc1	active
S=C(NNC(=S)NC1CC2CCC1C2)NC1CC2C=CC1C2 (stereo not drawn)	active
CC(C)c1cnc(NC(=O)Cc2ccccc2)s1	inactive
COc1ccc(-c2nc(CS(=O)CC(=O)N3CCc4ccccc4C3)c(C)o2)cc1 (stereo not drawn)	active

----------
TESTED_TARGET: Aldehyde dehydrogenase 1A1 (Homo sapiens) (UniProt P00352)
Sequence (P00352 whole entry, looked up): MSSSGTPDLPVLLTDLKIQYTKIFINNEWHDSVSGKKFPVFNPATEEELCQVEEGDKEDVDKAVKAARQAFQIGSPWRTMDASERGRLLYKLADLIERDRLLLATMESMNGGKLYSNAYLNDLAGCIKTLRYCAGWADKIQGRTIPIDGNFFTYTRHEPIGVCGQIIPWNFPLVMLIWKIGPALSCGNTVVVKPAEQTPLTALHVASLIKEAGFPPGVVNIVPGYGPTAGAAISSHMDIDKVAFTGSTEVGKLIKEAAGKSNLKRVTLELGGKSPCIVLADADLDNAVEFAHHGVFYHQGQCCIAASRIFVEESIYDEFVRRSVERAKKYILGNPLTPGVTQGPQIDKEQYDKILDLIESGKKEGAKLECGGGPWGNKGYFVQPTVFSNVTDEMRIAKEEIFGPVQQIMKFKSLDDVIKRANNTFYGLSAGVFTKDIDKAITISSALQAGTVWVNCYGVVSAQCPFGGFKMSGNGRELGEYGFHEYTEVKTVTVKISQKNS
ASSAY_PROTOCOL: qHTS Assay for Inhibitors of Aldehyde Dehydrogenase 1 (ALDH1A1); further: potency means the concentration at half of the fitted maximal effect
SETUP_CONDITIONS: Purified ALDH1A1, NADH fluorescence, propionaldehyde substrate; series mostly up to 75.3 µM
The whole screen tested about 220,000 compounds, of which about 16,000 (7.3%) were called active. Not shown: some 25% with an inconclusive outcome. The sample as a whole holds a higher share of actives than the screen did.

COMPOUND	Potency
COc1cc(/C=N/O)ccc1OCc1ccc([N+](=O)[O-])cc1	inactive
CCc1ccc(/C=C2\SC(N3CCOCC3)=NC2=O)cc1	inactive
CCc1ccccc1NC(=O)CSc1nnc(-c2ccncc2)o1	inactive
COc1ccccc1C(=O)NN1C(=O)C2C3C=CC(O3)C2C1=O (stereo not given)	20 µM (active)
COc1cc(/C=N/N=C(\N)c2nonc2N)cc(OC)c1OC	inactive
COc1ccc(C(=O)Oc2cc(/C=N/NS(=O)(=O)c3ccc(C)cc3)ccc2OC)cc1	inactive
COc1ccc(S(=O)(=O)N/N=C\c2ccc(OC)c(COc3ccc(C)cc3[N+](=O)[O-])c2)cc1	14.1 µM (active)
CC(Nc1oc(-c2ccccc2)nc1-c1ccccc1)c1ccccc1 (stereo not given)	inactive
CCS(=O)(=O)C1=NSC2=NC(=O)/C(=C\c3cc(C)n(-c4cccc(OC)c4)c3C)C(=N)N21	20 µM (active)
CCOc1cc(/C=C2/C(=N)N3OC(C)=CC3=NC2=O)ccc1OC	inactive

----------
TESTED_TARGET: Aldehyde dehydrogenase 1A1 (Homo sapiens)
ASSAY_PROTOCOL: qHTS Assay for Inhibitors of Aldehyde Dehydrogenase 1 (ALDH1A1)
SETUP_CONDITIONS: Purified ALDH1A1, NADH fluorescence, propionaldehyde substrate; series mostly up to 75.3 µM
About 16,000 (7.3%) of roughly 220,000 compounds were called active. Inconclusive results (about 25%) are left out. The call rests on the fitted dose curve; in most records, active means well fitted inhibition curve with a large enough effect (not every such curve was filed as active); inconclusive means small, poorly fitted or top-dose-only effect, or another doubt; inactive means no such curve, though single readings can be large or run the other way. Shown is part of a subset that was picked to be rich in actives.
Outcomes: active, inactive

COMPOUND	GROUP_LABEL
O=C(/C=C/c1ccc(F)cc1)NCCNC(=O)/C=C/c1ccc(F)cc1	inactive
Cc1ccc(-c2cc(C(=O)NN)n[nH]2)o1	inactive
Cc1ccc(NC(=O)CN2CCC(C(N)=O)CC2)cc1[N+](=O)[O-]	inactive
COc1ccc(NC(=S)N2CCCC(CO)C2)c(OC)c1 (stereo unspecified)	inactive
CNC(=O)CSc1nnnn1-c1ccc(C)cc1C	inactive
CCCNS(=O)(=O)c1ccc2c(c1)CCCN2C(C)=O	active
COCCn1c(CN2CCC(Cc3ccccc3)CC2)nc2c1c(=O)n(C)c(=O)n2C	inactive
CCSc1nc(C)nc2c1oc1ccccc12	inactive
CCN1CCC(=NNC(=O)c2ccc(C)c([N+](=O)[O-])c2)CC1	active
CCCCC(=O)NNC(=S)NC(=O)C(c1ccccc1)c1ccccc1	inactive
O=C(CNS(=O)(=O)c1ccccc1)NCC(=O)OCc1ccccc1F	inactive
Cc1ccc(NC(=O)N2CCC(c3nc4c(nnn4Cc4c(F)cccc4Cl)c(=O)[nH]3)CC2)cc1	active
Cc1nc(Cl)c2oc3ccccc3c2n1	inactive
Cn1c(=O)c2c(nc(OCc3cccnc3)n2Cc2ccccc2)n(C)c1=O	active
Cc1ccc(C)c(CSc2nc(-c3ccco3)nc3c2c(=O)n(C)c(=O)n3C)c1	inactive
Oc1ccc(CNc2ccccc2O)cc1	active
CCOC(=O)c1cc2c(nc1NC(=S)Nc1ccccc1)CC(C)(CC)OC2 (stereo unspecified)	active
O=C(Nc1ccc(N2CCN(C(=O)C3CC3)CC2)cc1)c1cccs1	inactive
Cc1ccc(NN=Nc2nc3c([nH]2)c(=O)n(C)c(=O)n3C)cc1	active
Cc1ccc(NC(=O)N2CCC(C(=O)NCc3ccc(F)cc3)CC2)cc1	inactive
CC(=O)N1CCc2cc(S(=O)(=O)Nc3ccccc3N3CCN(C)CC3)ccc21	inactive
O=C(CNS(=O)(=O)c1cccc(C(F)(F)F)c1)Nc1ccccc1F	active
COC(=O)c1cccc([N+](=O)[O-])c1CS(=O)(=O)c1ccc(C)cc1	inactive
CC(CCO)Nc1nc2c([nH]1)c(=O)n(C)c(=O)n2C (stereo unspecified)	inactive
COC(=O)c1sc(SC)c(S(=O)(=O)C(C)C)c1N/N=C(\C#N)S(=O)(=O)c1ccccn1	inactive
CC1(C)Cc2cccc(OCC(N)=O)c2O1	inactive
CCOC(=O)c1c(-c2ccc(C)cc2C)csc1NC(=O)CSc1nnnn1C	inactive
CC(C)(C)NC(=O)C(=O)NN=C1CCCCCCC1	inactive
C[C@@H](Nc1nc(-c2ccccc2)nc2c1oc1ccccc12)C(=O)O	active
CC(=O)Cc1nsc(NC(=O)c2ccc(Cl)cc2Cl)n1	inactive
CCN(C(=O)c1ccc(Br)cc1)c1ccccc1	inactive
CC(CCc1ccccc1)NC(=O)c1ccc(Br)o1 (stereo unspecified)	inactive
O=C(COC(=O)c1ccc2c(c1)OCCO2)NCc1ccccc1	inactive
O=C(CCc1ccccc1)Nc1nn[nH]n1	inactive
CCOC(=O)N1CCN(Cc2nc3c(c(=O)n(C)c(=O)n3C)n2Cc2ccccc2)CC1	active
CC(C)C(=O)Nc1cccc(NC(=S)NC(=O)C(c2ccccc2)c2ccccc2)c1	active
Cc1cccc(OCC(=O)Nc2ccccc2F)c1	inactive
N#Cc1ncc(C(F)(F)F)cc1Oc1cccnc1	inactive
Cn1c(=O)c2c(nc(NCCc3ccccc3)n2Cc2ccccc2)n(C)c1=O	inactive
CCOC(=O)c1cc2ccccc2nc1C	inactive
CC(Oc1cccc(NC(=O)c2cccs2)c1)C(=O)c1ccccc1 (stereo unspecified)	inactive
CC(CNC(=O)c1ccc(N)cc1)NC(=O)c1ccc(N)cc1 (stereo unspecified)	inactive
COC(=O)C/C=C/[C@@H](C)[C@H](NC(=O)OCC(Cl)(Cl)Cl)c1ccccc1	inactive
O=C(CN(Cc1ccccc1)C(=O)c1ccc2c(c1)OCCO2)NCc1ccc2c(c1)OCO2	active
COc1ccc(CN2CCC(c3nc4ccc(Cl)cc4[nH]3)CC2)cc1	inactive
Cc1ccc(Cn2nnc3c(=O)n(CC(=O)N4CCCCC4)cnc32)cc1	inactive
